# Measured Target: T1, cynomolgus MCSP D3 (cynomolgus, UniProt Q6UVK1 1582-2224 (human entry), limits assumed)
# T1 construct: also called Cyno MCSP; cynomolgus homologue
# T1 chain: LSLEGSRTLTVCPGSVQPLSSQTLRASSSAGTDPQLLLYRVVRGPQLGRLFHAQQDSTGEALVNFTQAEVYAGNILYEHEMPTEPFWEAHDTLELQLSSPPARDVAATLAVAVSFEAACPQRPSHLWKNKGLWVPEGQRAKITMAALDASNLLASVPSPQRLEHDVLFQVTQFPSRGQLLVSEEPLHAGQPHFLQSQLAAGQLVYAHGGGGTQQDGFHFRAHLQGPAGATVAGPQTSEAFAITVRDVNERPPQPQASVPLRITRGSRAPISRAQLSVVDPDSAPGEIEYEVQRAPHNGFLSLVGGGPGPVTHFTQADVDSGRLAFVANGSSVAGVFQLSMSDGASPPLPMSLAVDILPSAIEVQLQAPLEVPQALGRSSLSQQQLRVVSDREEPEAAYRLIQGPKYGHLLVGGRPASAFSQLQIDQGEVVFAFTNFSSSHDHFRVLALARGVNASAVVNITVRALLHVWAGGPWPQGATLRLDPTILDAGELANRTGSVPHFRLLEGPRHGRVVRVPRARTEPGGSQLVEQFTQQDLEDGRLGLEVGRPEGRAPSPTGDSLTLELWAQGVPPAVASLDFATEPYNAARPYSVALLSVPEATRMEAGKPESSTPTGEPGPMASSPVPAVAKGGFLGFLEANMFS
# Assay Text: SPR Biacore T200, 25 C; avidity: MCSP D3 captured via anti-Penta His, IgG as analyte
Measure: Kd (pM)

Binder	Measure	Test Value
M4-3(C1)/ML2(E10) IgG (antibody, V domains shown, Human IgG1) VH: QVQLQESGPGLVKPSQTLSLTCTVSGGSITSGYYWNWIRQHPGKGLEWIGYITFDGSNNYNPSLKSRVTISRDTSKNQFSLKLSSVTAADTAVYYCADFDYWGQGTLVTVSS VL: DIQMTQSPSSLSASVGDRVTITCRASYGIRGYLNWYQQKPGKAPKLLIYYTSSLHSGVPSRFSGSGSGTDFTLTISSLQPEDFATYHCQQYSKLPWTFGQGTKVEIK	Kd	4.4
Parental M4-3/ML2 IgG (antibody, V domains shown, Human IgG1 format, from mammalian production; also called M4-3 ML2 (parental); anti-MCSP antibody M4-3/ML2) VH: QVQLQESGPGLVKPSQTLSLTCTVSGGSITSGYYWNWIRQHPGKGLEWIGYITYDGSNNYNPSLKSRVTISRDTSKNQFSLKLSSVTAADTAVYYCADFDYWGQGTLVTVSS VL: DIQMTQSPSSLSASVGDRVTITCRASQGIRNYLNWYQQKPGKAPKLLIYYTSSLHSGVPSRFSGSGSGTDFTLTISSLQPEDFATYYCQQYSKLPWTFGQGTKVEIK	Kd	12.3
M4-3(C1)/ML2(C5) IgG (antibody, V domains shown, Human IgG1) VH: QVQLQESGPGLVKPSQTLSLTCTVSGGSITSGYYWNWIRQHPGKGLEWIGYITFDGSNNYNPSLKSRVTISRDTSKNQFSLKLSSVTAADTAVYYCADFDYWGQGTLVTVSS VL: DIQMTQSPSSLSASVGDRVTITCRASRGIREYLNWYQQKPGKAPKLLIYYTGSLHSGVPSRFSGSGSGTDFTLTISSLQPEDFATYYCQQYSELPWTFGQGTKVEIK	Kd	4.4
M4-3(C1)/ML2(G3) IgG (antibody, V domains shown, Human IgG1) VH: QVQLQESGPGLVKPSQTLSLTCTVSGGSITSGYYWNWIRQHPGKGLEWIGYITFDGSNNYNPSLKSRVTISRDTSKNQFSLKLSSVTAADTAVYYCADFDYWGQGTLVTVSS VL: DIQMTQSPSSLSASVGDRVTITCRASQGIRNYLNWYQQKPGKAPKLLIYYTSSLHSGVPSRFSGSGSGTDYTLTISSLQPEDFATYYCQQYSALPWTFGQGTKVEIKR	Kd	3.8
